Recorded values, source patent US11701372B2.

format: physicochemical; settings: pH 4.0; 2-8° C.; 168 h
Measure Name: % assay/degs, difference from T = 0 (%)
Your answer is read as %, so omit the unit and give the number.

Task item: Could you tell me which % assay/degs, difference from T = 0 is on file for "N#C[C@@]1(c2ccc3c(N)ncnn23)O[C@H](CO)[C@@H](O)[C@H]1O" ?
Reply: 0.00

Task item: Could you tell me which % assay/degs, difference from T = 0 is on file for "N#C[C@@]1(c2ccc3c(N)ncnn23)O[C@H](COP(=O)(O)Oc2ccccc2)[C@@H](O)[C@H]1O" ?
Reply: 0.01

Task item: Could you tell me which % assay/degs, difference from T = 0 is on file for "CCC(CC)COC(=O)[C@H](C)N[P@](=O)(OC[C@H]1O[C@@](C(N)=O)(c2ccc3c(N)ncnn23)[C@H](O)[C@@H]1O)Oc1ccccc1" ?
Reply: 0.00

Task item: Could you tell me which % assay/degs, difference from T = 0 is on file for "CCC(CC)COC(=O)[C@H](C)N[P@](=O)(OC[C@H]1O[C@@](C#N)(c2ccc3c(N)ncnn23)[C@H](O)[C@@H]1O)Oc1ccccc1" ?
Reply: 0.6
